- Tested on: Trypanosoma cruzi
- ASSAY EXPLANATION: microbe, parasite or virus in culture
- Format: functional, organism-based
- DETAILS: MHOM/MX/1994/Ninoa, 24 h
- Description: Antitrypanosomal activity against Trypanosoma cruzi MHOM/MX/1994/Ninoa infected in animal assessed as reduction in viable parasite in blood measured after 24 hrs by neubauer chamber assay

- COMPOUND: "C#C[C@]1(O)CC[C@H]2[C@@H]3CC=C4C[C@@H](O[N+](=O)[O-])CC[C@]4(CO[N+](=O)[O-])[C@H]3CC[C@@]21C"
  IC50: "> 300 µM"
- COMPOUND: "C[C@]12CC[C@H]3[C@@H](CC=C4C[C@@H](O)CC[C@@]43CO)[C@@H]1CCC2=O"
  IC50: "> 300 µM"
- COMPOUND: "C[C@]12CC[C@H](O)CC1=CC[C@@H]1[C@@H]2CC[C@]2(C)C(=O)CC[C@@H]12 [PRASTERONE]"
  IC50: "> 300 µM"
- COMPOUND: "C[C@]12CC[C@H]3[C@@H](CC=C4C[C@@H](O[N+](=O)[O-])CC[C@@]43C)[C@@H]1CC[C@@H]2O[N+](=O)[O-]"
  IC50: "> 300 µM"
- COMPOUND: "C#C[C@]1(O[N+](=O)[O-])CC[C@H]2[C@@H]3CC=C4C[C@@H](O[N+](=O)[O-])CC[C@]4(CO[N+](=O)[O-])[C@H]3CC[C@@]21C"
  IC50: "> 300 µM"

src = ChEMBL document CHEMBL5032525
